Recorded values, source patent US20200207859A1.

// cell killing IC50, ARD (MM) cells lookup, one value per entry
Target: CD74 (human), P04233
Sequence (P04233 whole entry): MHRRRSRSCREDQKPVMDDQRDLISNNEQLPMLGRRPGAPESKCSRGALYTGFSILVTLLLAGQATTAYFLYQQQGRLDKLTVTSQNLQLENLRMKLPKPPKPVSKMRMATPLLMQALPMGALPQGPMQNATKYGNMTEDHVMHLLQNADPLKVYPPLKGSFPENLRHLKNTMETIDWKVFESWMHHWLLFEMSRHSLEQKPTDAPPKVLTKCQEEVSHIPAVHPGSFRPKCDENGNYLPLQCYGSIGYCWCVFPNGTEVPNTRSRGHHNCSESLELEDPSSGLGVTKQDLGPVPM
Assay: cell-based or functional assay
Quick note: give the figure in nM, leave out the unit.

Consider the following illustrative entries.
>  <Binder>
Conjugate E (anti-CD74 IgG-PEG4-MMAF conjugate) (antibody, V domains shown, here or on the partner: modified amino acid residue 30 (pAMF) according to Example 2, position not stated for this conjugate, linked to PEG4-MMAF) VH: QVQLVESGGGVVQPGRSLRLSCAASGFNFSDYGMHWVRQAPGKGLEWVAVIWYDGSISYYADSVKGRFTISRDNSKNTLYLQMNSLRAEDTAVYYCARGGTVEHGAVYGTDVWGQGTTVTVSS VL: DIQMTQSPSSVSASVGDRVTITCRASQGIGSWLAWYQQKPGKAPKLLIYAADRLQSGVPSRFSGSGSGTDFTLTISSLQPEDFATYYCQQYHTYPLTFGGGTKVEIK

>  <Measurement unit>
nM

>  <cell killing IC50, ARD (MM) cells>
18

$$$$
>  <Binder>
Conjugate F (anti-CD74 IgG-PEG4-MMAE conjugate) (antibody, V domains shown, here or on the partner: modified amino acid residue 30 (pAMF) according to Example 2, position not stated for this conjugate, linked to PEG4-MMAE) VH: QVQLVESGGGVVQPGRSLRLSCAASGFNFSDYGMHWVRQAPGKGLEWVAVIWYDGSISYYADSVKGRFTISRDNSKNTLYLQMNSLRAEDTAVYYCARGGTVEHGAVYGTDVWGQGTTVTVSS VL: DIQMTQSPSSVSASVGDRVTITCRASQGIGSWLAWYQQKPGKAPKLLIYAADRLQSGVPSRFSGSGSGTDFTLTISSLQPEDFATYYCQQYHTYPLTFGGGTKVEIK

>  <Measurement unit>
nM

>  <cell killing IC50, ARD (MM) cells>
16

$$$$
>  <Binder>
Conjugate B (anti-CD74 IgG-PEG4-maytansine conjugate) (antibody, V domains shown, here or on the partner: modified amino acid residue 30 (pAMF) according to Example 2, position not stated for this conjugate, linked to a PEG4-maytansine linker-payload) VH: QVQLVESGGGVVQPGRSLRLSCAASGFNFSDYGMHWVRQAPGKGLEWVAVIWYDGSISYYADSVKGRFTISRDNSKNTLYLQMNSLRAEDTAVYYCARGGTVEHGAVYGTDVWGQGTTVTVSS VL: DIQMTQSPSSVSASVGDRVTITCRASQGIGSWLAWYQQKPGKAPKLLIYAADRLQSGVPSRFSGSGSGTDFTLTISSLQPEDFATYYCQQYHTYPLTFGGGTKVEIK

>  <Measurement unit>
nM

>  <cell killing IC50, ARD (MM) cells>
31

$$$$

Note: attention shifts to another entry.
Task: # query: cell killing IC50, ARD (MM) cells of entry Conjugate A (anti-CD74 IgG-DBCO-PEG4-maytansine conjugate) (antibody, V domains shown, here or on the partner: para-azidomethyl-L-phenylalanine (pAMF, residue 30) at heavy chain EU position 404 (constant region, outside SEQ ID NO 236), linked to DBCO-PEG4-maytansine) VH: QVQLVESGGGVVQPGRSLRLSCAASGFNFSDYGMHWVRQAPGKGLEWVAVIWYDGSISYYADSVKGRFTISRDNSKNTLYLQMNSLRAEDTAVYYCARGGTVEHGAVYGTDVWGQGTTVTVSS VL: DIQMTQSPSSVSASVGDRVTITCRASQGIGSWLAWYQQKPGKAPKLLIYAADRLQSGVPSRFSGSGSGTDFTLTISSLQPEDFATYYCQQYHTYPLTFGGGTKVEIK
Output: 8.6
